- Method Description: Permeability of compound by PAMPA at pH 7.4
- Type: ADME
- Assay Context: read-out: permeability

Smiles Structure: CC1CCN(C(=O)c2sc(-c3ccc(S(C)(=O)=O)c([N+](=O)[O-])c3)nc2C(F)(F)F)CC1
Papp [×10⁻⁶ cm/s]: 702

* * *

- Method Description: Permeability of compound by PAMPA at pH 7.4
- Assay type: ADME
Under this convention, criterion met denotes permeability strictly below 700 ×10⁻⁶ cm/s and criterion not met denotes permeability at or above 700 ×10⁻⁶ cm/s.

Molecule: CN(Cc1ccccc1F)C(=O)c1sc(-c2ccc(S(C)(=O)=O)c([N+](=O)[O-])c2)nc1C(F)(F)F
Assigned Class: criterion met

Molecule: CS(=O)(=O)c1ccc(-c2ncc(C(=O)NC34CC5CC(CC(C5)C3)C4)s2)cc1[N+](=O)[O-]
Assigned Class: criterion met

Molecule: CS(=O)(=O)c1ccc(-c2nc(C(F)(F)F)c(C(=O)N3CCCCC3)s2)cc1[N+](=O)[O-]
Assigned Class: criterion not met

Molecule: CC1Cc2ccccc2N1C(=O)c1sc(-c2ccc(S(C)(=O)=O)c([N+](=O)[O-])c2)nc1C(F)(F)F (stereo not given)
Assigned Class: criterion met

Molecule: CCCN(C(=O)c1csc(-c2ccc(S(C)(=O)=O)c([N+](=O)[O-])c2)n1)c1ccccc1
Assigned Class: criterion not met

Molecule: CCc1nc(-c2ccc(S(C)(=O)=O)c([N+](=O)[O-])c2)sc1C(=O)N1CC2(C)CC1CC(C)(C)C2 (stereo not given)
Assigned Class: criterion not met

Molecule: CCc1nc(-c2ccc(S(C)(=O)=O)c([N+](=O)[O-])c2)sc1C(=O)N1CCCCC1
Assigned Class: criterion met

Molecule: CN(Cc1cccc(F)c1)C(=O)c1sc(-c2ccc(S(C)(=O)=O)c([N+](=O)[O-])c2)nc1C(F)(F)F
Assigned Class: criterion met

Molecule: CS(=O)(=O)c1ccc(-c2nc(-c3ccccc3)c(C(=O)N3CCCCC3)s2)cc1[N+](=O)[O-]
Assigned Class: criterion not met

Molecule: Cc1nc(-c2ccc(S(C)(=O)=O)c([N+](=O)[O-])c2)sc1C(=O)N1CCCCC1
Assigned Class: criterion met
